// data source = paper PMC10279920

Molecular target: T1, GFP-Pif1 E724A (Saccharomyces cerevisiae, UniProt P07271 40-859, E724A)
T1 sequence: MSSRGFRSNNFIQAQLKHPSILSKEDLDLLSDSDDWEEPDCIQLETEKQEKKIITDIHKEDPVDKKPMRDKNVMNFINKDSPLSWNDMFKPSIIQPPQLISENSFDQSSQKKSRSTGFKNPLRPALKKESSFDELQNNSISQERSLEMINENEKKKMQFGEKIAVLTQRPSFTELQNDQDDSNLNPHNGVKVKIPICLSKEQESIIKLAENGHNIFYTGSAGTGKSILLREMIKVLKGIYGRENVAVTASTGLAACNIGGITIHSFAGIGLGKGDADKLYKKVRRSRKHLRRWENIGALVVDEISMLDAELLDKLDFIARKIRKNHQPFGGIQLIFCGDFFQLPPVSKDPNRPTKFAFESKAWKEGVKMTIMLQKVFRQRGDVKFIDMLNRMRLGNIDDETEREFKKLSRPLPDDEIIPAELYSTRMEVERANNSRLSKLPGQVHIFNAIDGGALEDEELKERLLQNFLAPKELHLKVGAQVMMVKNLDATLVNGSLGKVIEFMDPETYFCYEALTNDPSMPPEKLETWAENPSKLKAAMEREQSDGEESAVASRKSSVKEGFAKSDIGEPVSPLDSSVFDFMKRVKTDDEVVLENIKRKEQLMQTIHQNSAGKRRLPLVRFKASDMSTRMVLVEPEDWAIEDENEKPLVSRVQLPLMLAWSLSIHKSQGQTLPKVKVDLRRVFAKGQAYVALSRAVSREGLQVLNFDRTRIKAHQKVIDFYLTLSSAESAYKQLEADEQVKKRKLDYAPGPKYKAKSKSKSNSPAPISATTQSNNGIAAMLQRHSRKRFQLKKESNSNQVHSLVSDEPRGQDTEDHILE
Experiment: EMSA; no ATP, 5 mM Mg2+; 35 mM Tris-HCl pH 7.5, 1 mM DTT, 5 mM MgCl2, 60 mM KCl, 0.1 mg/ml BSA, no ATP, 30 min at 30 C; 5 nM ssDNA
Conditions: protein: recombinant; tags: N-terminal superfolder GFP; Ni-NTA purified; label: 5' Alexa647
metricName: Kd

Problem: What measured Kd goes with GCTAGCAGTAGCCAGCATCGAACGTACGATCGGTAACGTA (ssDNA) [40-nt ssDNA] ?
Solution: 19 nM
